Entry source: patent US9670227B2

# Experimental System: Mcl-1 protein (UniProtKB primary accession number: Q07820) (Homo sapiens, UniProt Q07820)
# Sequence (Q07820 whole entry): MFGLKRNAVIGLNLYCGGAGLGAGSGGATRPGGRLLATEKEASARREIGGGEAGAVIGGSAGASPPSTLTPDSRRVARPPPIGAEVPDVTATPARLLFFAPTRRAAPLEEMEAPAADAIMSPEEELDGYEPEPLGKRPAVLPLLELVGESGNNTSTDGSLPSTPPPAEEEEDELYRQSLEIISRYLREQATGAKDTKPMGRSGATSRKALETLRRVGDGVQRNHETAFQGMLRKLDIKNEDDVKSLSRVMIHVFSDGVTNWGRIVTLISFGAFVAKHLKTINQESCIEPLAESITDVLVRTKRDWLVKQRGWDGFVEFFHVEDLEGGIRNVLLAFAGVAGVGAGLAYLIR
# Experiment: Inhibition of Mcl-1 by fluorescence polarisation, Method 1
# Type: binding
# Experimental Setup: IC50 (M) Mcl-1 FP, fluorescence polarisation test; Method 2 values are underlined in the patent (underlining not visible here)
Measurement Type: IC50 (M)
State the answer as a number, implicitly in M.

## Input What IC50 value was documented for this compound, COCCOc1ccccc1CC(Oc1ncnc2sc(-c3ccc(F)c(OC)c3)c(-c3ccc(OCCN4CCN(C)CC4)c(Cl)c3C)c12)C(=O)O (stereo not shown) ?
## Output 4e-09

###

# Experimental System: Mcl-1 protein (UniProtKB primary accession number: Q07820) (Homo sapiens, UniProt Q07820)
# Experiment: Inhibition of Mcl-1 by fluorescence polarisation, Method 1
# Assay type: binding
# Experimental Setup: test compound at 10 uM; Method 1, or Method 2 where the value is underlined (underlining not visible)
Label rule, in plain words: percentage fluorescence polarisation inhibition (Mcl-1 FP), partial inhibitors of 30 % @ 10 uM and up is TRUE, under 30 % @ 10 uM is FALSE.

## Input Does percentage fluorescence polarisation inhibition (Mcl-1 FP), partial inhibitors meet or surpass 30 % @ 10 uM for COCCOC(=O)[C@@H](Cc1ccccc1OCc1ccnn1C(C)(C)C)Oc1ncnc2sc(-c3cccc(F)c3F)c(-c3ccc(OCCN(C)C)c(Cl)c3C)c12 [Example 805] ?
## Output TRUE

## Input Tell me whether percentage fluorescence polarisation inhibition (Mcl-1 FP), partial inhibitors is at least 30 % @ 10 uM here: CCCCCCCCOC(=O)[C@@H](Cc1ccccc1OC)Oc1ncnc2sc(-c3ccc(F)cc3)c(-c3ccc(OC)c(Cl)c3C)c12 [Example 851]
## Output FALSE

## Input Form field: percentage fluorescence polarisation inhibition (Mcl-1 FP), partial inhibitors at least 30 % @ 10 uM? Entry: CCOC(=O)[C@@H](Cc1ccccc1OCc1ccnc(-c2ccccc2F)n1)Oc1ncnc2sc(-c3ccc(F)cc3)c(-c3ccc(OCCN(C)C)c(Cl)c3C)c12 [Example 807]
## Output TRUE

## Input Textbook exercise: given the entry COc1ccccc1-c1nccc(COc2ccccc2C[C@@H](Oc2ncnc3sc(-c4ccc(F)cc4)c(-c4ccc(OC)c(Cl)c4C)c23)C(=O)OCOC(=O)C(C)(C)C)n1 [Example 849] , state whether its percentage fluorescence polarisation inhibition (Mcl-1 FP), partial inhibitors is greater than or equal to 30 % @ 10 uM.
## Output TRUE

## Input Could you tell me if the measured percentage fluorescence polarisation inhibition (Mcl-1 FP), partial inhibitors of COc1ccccc1-c1nccc(COc2ccccc2C[C@@H](Oc2ncnc3sc(-c4ccc(F)cc4)c(-c4ccc(OC)c(Cl)c4C)c23)C(=O)OCC(=O)N(C)C)n1 [Example 848] reaches 30 % @ 10 uM or more?
## Output TRUE

## Input Identify whether the reported percentage fluorescence polarisation inhibition (Mcl-1 FP), partial inhibitors of the following compound is 30 % @ 10 uM or greater: CCCCCCCCOC(=O)[C@@H](Cc1ccccc1OCc1ccnc(-c2ccccc2OC)n1)Oc1ncnc2sc(-c3ccc(F)cc3)c(-c3ccc(OCCN4CCN(C)CC4)c(Cl)c3C)c12 [Example 815]
## Output FALSE

## Input Is percentage fluorescence polarisation inhibition (Mcl-1 FP), partial inhibitors at least 30 % @ 10 uM? Consider COc1ccccc1C[C@@H](Oc1ncnc2sc(-c3ccc(F)cc3)c(-c3ccc(OC)c(Cl)c3C)c12)C(=O)OCC(=O)N(C)C [Example 845]
## Output FALSE

## Input I'd appreciate it if you could say whether CCOC(=O)[C@@H](Cc1ccccc1OC)Oc1ncnc2sc(-c3ccc(F)cc3)c(-c3ccc(OC)c(Cl)c3C)c12 [Example 842] has percentage fluorescence polarisation inhibition (Mcl-1 FP), partial inhibitors at least equal to 30 % @ 10 uM.
## Output FALSE

## Input Does the reported percentage fluorescence polarisation inhibition (Mcl-1 FP), partial inhibitors for CCOC(=O)[C@@H](Cc1ccccc1OCc1ccnc(-c2ccccc2OC)n1)Oc1ncnc2sc(-c3ccc(F)cc3)c(-c3ccc(OC)c(Cl)c3C)c12 [Example 843] fall at or above the 30 % @ 10 uM mark?
## Output FALSE

## Input Has CCOC(=O)[C@@H](Cc1ccccc1OCc1ccnc(-c2ccccc2OC)n1)Oc1ncnc2sc(-c3ccc(F)cc3)c(-c3ccc(OCCN4CCN(C)CC4)c(Cl)c3C)c12 [Example 830] a recorded percentage fluorescence polarisation inhibition (Mcl-1 FP), partial inhibitors greater than or equal to 30 % @ 10 uM?
## Output FALSE

## Input Could you tell me if the measured percentage fluorescence polarisation inhibition (Mcl-1 FP), partial inhibitors of CCCCCCCCOC(=O)[C@@H](Cc1ccccc1OCc1ccnc(-c2ccccc2OC)n1)Oc1ncnc2sc(-c3ccc(F)cc3)c(-c3ccc(OC)c(Cl)c3C)c12 [Example 847] reaches 30 % @ 10 uM or more?
## Output FALSE

## Input Can CCOC(=O)[C@@H](Cc1ccccc1OCc1ccnc(-c2ccccc2CO)n1)Oc1ncnc2sc(-c3ccc(F)cc3)c(-c3ccc(OCCN(C)C)c(Cl)c3C)c12 [Example 857] be said to have percentage fluorescence polarisation inhibition (Mcl-1 FP), partial inhibitors at or above 30 % @ 10 uM?
## Output TRUE

## Input I'd appreciate it if you could say whether COCCOC(=O)[C@@H](Cc1ccccc1OCc1ccnc(-c2ccccc2F)n1)Oc1ncnc2sc(-c3ccc(F)cc3)c(-c3ccc(OCCN(C)C)c(Cl)c3C)c12 [Example 799] has percentage fluorescence polarisation inhibition (Mcl-1 FP), partial inhibitors at least equal to 30 % @ 10 uM.
## Output TRUE

## Input Can COc1ccccc1C[C@@H](Oc1ncnc2sc(-c3ccc(F)cc3)c(-c3ccc(OC)c(Cl)c3C)c12)C(=O)OCOC(=O)C(C)(C)C [Example 846] be said to have percentage fluorescence polarisation inhibition (Mcl-1 FP), partial inhibitors at or above 30 % @ 10 uM?
## Output FALSE

###

# Experimental System: Mcl-1 protein (UniProtKB primary accession number: Q07820) (Homo sapiens, UniProt Q07820)
# Experiment: Inhibition of Mcl-1 by fluorescence polarisation, Method 1
# Type: binding
# Experimental Setup: fluorescence polarisation; Method 1, or Method 2; read-out: IC50 (M) Mcl-1 FP
Measurement Type: IC50 (M)
Form entry: value (M) — number only.

## Input Query: IC50; subject: COc1ccccc1CC(Oc1ncnc2sc(-c3ccc(F)cc3)c(-c3ccc(OCCN4CCN(C)CC4)c(Br)c3C)c12)C(=O)O (stereo not drawn)
## Output 2.1e-08

## Input // IC50 lookup, key: CCc1sc2ncnc(OC(Cc3ccccc3)C(=O)O)c2c1-c1ccc(OCCCN2CCN(C)CC2)c(Cl)c1C (stereo not drawn)
## Output 6.6e-08

## Input Given the entry COc1nccc(COc2ccccc2CC(Oc2ncnc3sc(-c4ccc(F)c(OCCN5CCOCC5)c4)c(-c4ccc(OC)c(Cl)c4C)c23)C(=O)O)n1 (stereo not drawn) , report its measured IC50.
## Output 1.2e-08

###

# Experimental System: Mcl-1 protein (UniProtKB primary accession number: Q07820) (Homo sapiens, UniProt Q07820)
# Experiment: Inhibition of Mcl-1 by fluorescence polarisation, Method 1
# Type: binding
# Experimental Setup: fluorescence polarisation test; Method 2 values are underlined in the patent (underlining not visible here); read-out: IC50 (M) Mcl-1 FP
Hi there, I'd appreciate the recorded IC50 for every entry that follows.
Express the result in M but write the number alone.

## Input Find the recorded IC50 belonging to Cc1c(-c2c(-c3ccco3)sc3ncnc(OC(Cc4ccccc4OCC4CCCC4)C(=O)O)c23)ccc(OCCN2CCN(C)CC2)c1Cl (stereo not drawn) and report it.
## Output 1.1e-08

## Input Tell me the measured IC50 of Cc1c(-c2c(-c3ccc(F)cc3)sc3ncnc(OC(Cc4ccccc4OCc4cnccn4)C(=O)O)c23)ccc(OCC2CCN(C)C2)c1Cl (stereo not drawn) [Example 139] , please.
## Output 8.5e-08

## Input Can you share its IC50? I mean this compound: Cc1c(-c2c(-c3ccc(F)o3)sc3ncnc(OC(Cc4ccccc4OCc4ccncn4)C(=O)O)c23)ccc(OCCN2CCN(C)CC2)c1Cl (stereo not drawn)
## Output 5e-09

## Input Sample Cc1c(-c2c(-c3ccc(F)cc3)sc3ncnc(OC(Cc4ccccc4OCc4ccnc(N5CCN(C)CC5)n4)C(=O)O)c23)ccc(OCCN2CCN(C)CC2)c1Cl (stereo not drawn) — what was its IC50?
## Output 7.6e-09

## Input Quick one: IC50 of CCOCCOc1nccc(COc2ccccc2CC(Oc2ncnc3sc(-c4ccc(F)cc4)c(-c4ccc(OCCN5CCN(C)CC5)c(Cl)c4C)c23)C(=O)O)n1 (stereo not drawn) ?
## Output 4.4e-09

## Input Would you mind telling me what IC50 value was observed for Cc1c(-c2c(-c3ccco3)sc3ncnc(OC(Cc4ccccc4OCCc4ccccn4)C(=O)O)c23)ccc(OCCN2CCN(C)CC2)c1Cl (stereo not drawn) ?
## Output 1.4e-08
